Molecular target: Neuropeptide Y receptor type 1 (Homo sapiens) (UniProt P25929)
Sequence (P25929 whole entry, looked up): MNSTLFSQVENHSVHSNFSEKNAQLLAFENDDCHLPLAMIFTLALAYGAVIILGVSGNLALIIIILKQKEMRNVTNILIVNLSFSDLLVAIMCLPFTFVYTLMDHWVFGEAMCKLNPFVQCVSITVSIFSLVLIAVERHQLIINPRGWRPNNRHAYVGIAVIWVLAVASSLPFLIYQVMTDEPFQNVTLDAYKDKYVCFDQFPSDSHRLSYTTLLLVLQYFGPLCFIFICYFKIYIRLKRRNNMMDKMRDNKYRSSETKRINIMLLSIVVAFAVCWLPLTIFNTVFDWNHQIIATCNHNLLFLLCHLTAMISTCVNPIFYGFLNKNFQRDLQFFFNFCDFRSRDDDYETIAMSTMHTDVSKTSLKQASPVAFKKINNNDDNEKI
Starred links: 1 amine or outer side, 2 acyl side, 3 side chain; linkers in the order of their positions; H or OH if unused. Non-standard residues stand in square brackets, D forms with d. Residues, ends and D or L forms follow the SMILES beside them. X1 = O=C([C@@H]1C[C@@H](c2ccccc2)[C@@H]1CN[*:1])[*:2]
quantity_name: Ki (nM)
Your answer should be a plain number; it is taken to be in nM.

>>> quantitative_readout("CC(=O)N[C@@H](CCCNC(=N)N)C(=O)N[C@@H](Cc1ccc(O)cc1)C(=O)N[C@@H](CCCNC(=N)N)C(=O)N[C@@H](CC(C)C)C(=O)N[C@@H](CCCNC(=N)N)C(=O)N[C@@H](Cc1ccc(O)cc1)C(N)=O")
1180

Kindly consider the entry below.
Give Ki for CC(=O)N[C@@H](CCCNC(=N)N)C(=O)NC[C@@H]1[C@H](C(=O)N[C@@H](CCCNC(=N)N)C(=O)N[C@@H](CC(C)C)C(=O)N[C@@H](CCCNC(=N)N)C(=O)N[C@@H](Cc2ccc(O)cc2)C(N)=O)C[C@H]1c1ccccc1 (Ac-R[X1]RLRY-NH2)
230

* * *

Target: UniProtKB P25929
pKi: −log10 of the molar value. Starred links: 1 amine or outer side, 2 acyl side, 3 side chain; linkers in the order of their positions; H or OH if unused. Non-standard residues stand in square brackets, D forms with d. Residues, ends and D or L forms follow the SMILES beside them. X1 = O=C([C@@H]1C[C@@H](c2ccccc2)[C@@H]1CN[*:1])[*:2]; X2 = O=C([C@H]1C[C@H](c2ccccc2)[C@H]1CN[*:1])[*:2]
quantity_name: pKi

Answered examples (2):
>>> result("CC(=O)N[C@@H](CCCNC(=N)N)C(=O)NC[C@H]1[C@@H](C(=O)N[C@@H](CCCNC(=N)N)C(=O)N[C@@H](CC(C)C)C(=O)N[C@@H](CCCNC(=N)N)C(=O)N[C@@H](Cc2ccc(O)cc2)C(N)=O)C[C@@H]1c1ccccc1 (Ac-R[X2]RLRY-NH2)")
"< 5.52"
>>> result("CC(=O)N[C@@H](CCCNC(=N)N)C(=O)NC[C@@H]1[C@H](C(=O)N[C@@H](CCCNC(=N)N)C(=O)NC[C@@H]2[C@H](C(=O)N[C@@H](CCCNC(=N)N)C(=O)N[C@@H](Cc3ccc(O)cc3)C(N)=O)C[C@H]2c2ccccc2)C[C@H]1c1ccccc1 (Ac-R[X1]R[X1]RY-NH2)")
"< 6.00"

Answer briefly: pKi recorded on UniProtKB P25929 for CC(=O)N[C@@H](CCCNC(=N)N)C(=O)NC[C@H]1[C@@H](C(=O)N[C@@H](CCCNC(=N)N)C(=O)NC[C@H]2[C@@H](C(=O)N[C@@H](CCCNC(=N)N)C(=O)N[C@@H](Cc3ccc(O)cc3)C(N)=O)C[C@@H]2c2ccccc2)C[C@@H]1c1ccccc1 (Ac-R[X2]R[X2]RY-NH2)
< 5.98
